Experiment: self-splicing fitness, log relative to wild type (ln ratio); higher = more splicing; Tetrahymena group I intron in knt gene, E. coli kanamycin selection, DiMSum; sequences stand for … in CUCUCU…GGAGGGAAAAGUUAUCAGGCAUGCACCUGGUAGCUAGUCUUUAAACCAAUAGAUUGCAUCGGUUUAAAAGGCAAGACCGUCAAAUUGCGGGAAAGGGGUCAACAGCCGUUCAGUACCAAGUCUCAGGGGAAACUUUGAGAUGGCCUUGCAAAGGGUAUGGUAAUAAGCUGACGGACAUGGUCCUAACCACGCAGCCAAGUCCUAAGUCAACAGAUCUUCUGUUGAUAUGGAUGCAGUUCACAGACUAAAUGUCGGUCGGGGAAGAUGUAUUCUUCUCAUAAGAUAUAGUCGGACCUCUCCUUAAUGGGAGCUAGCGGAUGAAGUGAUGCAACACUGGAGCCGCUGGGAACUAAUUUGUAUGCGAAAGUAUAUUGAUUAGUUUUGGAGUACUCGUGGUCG;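 further: selection with 25 µg/mL kanamycin versus none on LB agar overnight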
Settings: 30 °C
Tag: label 1 if measured self-splicing fitness (ln) is not below -3, label 0 if it is.

residue_sequence | class_label
CGAUAGCAAUAUUACGGAAU | label 0
AUCCAGCAAUAUUACGGAUC | label 0
GAUGAGCAAUAUUACGAGCA | label 1
UGCCAGCAAUAUUACGCAAA | label 1
GAUGAGCAAUAUUACGUCAA | label 0
AGGGAGCAAUAUUACGUAGU | label 0
AAGUAGCAAUAUUACGUAUA | label 1
AAUAAGCAAUAUUACGUCUU | label 1
AGACAGCAAUAUUACGCGGC | label 0
AACAAGCAAUAUUACGAACG | label 1
GCUCAGCAAUAUUACGUCUA | label 1
CGGCAGCAAUAUUACGGCCG | label 0
CUUUAGCAAUAUUACGACAC | label 0
UGAGAGCAAUAUUACGAUUA | label 1
GACCAGCAAUAUUACGCAGG | label 0
CUUAAGCAAUAUUACGGACG | label 1
CCGGAGCAAUAUUACGUGCC | label 1
AUCCAGCAAUAUUACGGAAC | label 1
GGGAAGCAAUAUUACGGUAU | label 1
CCGCAGCAAUAUUACGGUGU | label 0
UCGUAGCAAUAUUACGUAAC | label 1
AUGGAGCAAUAUUACGUACU | label 1
UCUAAGCAAUAUUACGUACG | label 1
CGAGAGCAAUAUUACGCUCU | label 0
UGCUAGCAAUAUUACGAUGU | label 0

---

Property: self-splicing fitness (ln); scope: individual sequences
Assay: self-splicing fitness, log relative to wild type (ln ratio); higher = more splicing; Tetrahymena group I intron in knt gene, E. coli kanamycin selection, DiMSum; sequences stand for … in CUCUCU…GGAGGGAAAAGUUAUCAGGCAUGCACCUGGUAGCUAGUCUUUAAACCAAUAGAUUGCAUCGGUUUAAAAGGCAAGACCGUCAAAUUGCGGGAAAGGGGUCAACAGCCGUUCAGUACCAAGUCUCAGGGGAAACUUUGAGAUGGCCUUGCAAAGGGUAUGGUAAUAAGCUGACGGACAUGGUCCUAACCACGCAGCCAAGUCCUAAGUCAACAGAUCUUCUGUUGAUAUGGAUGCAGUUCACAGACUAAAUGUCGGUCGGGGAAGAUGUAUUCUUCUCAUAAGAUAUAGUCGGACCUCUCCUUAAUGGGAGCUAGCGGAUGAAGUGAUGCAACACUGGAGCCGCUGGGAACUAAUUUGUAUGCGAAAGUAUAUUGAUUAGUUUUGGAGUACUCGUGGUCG
Settings: 30 °C
recorded_endpoint: self-splicing fitness (ln)

residue_sequence | recorded_endpoint | result_value
UGAUAGCAAUAUUACGACCA | self-splicing fitness (ln) | -2.04
GUGUAGCAAUAUUACGGAAG | self-splicing fitness (ln) | -1.96
ACCCAGCAAUAUUACGACCG | self-splicing fitness (ln) | -2.05

---

Experiment: self-splicing fitness, log relative to wild type (ln ratio); higher = more splicing; Tetrahymena group I intron in knt gene, E. coli kanamycin selection, DiMSum; sequences stand for … in CUCUCU…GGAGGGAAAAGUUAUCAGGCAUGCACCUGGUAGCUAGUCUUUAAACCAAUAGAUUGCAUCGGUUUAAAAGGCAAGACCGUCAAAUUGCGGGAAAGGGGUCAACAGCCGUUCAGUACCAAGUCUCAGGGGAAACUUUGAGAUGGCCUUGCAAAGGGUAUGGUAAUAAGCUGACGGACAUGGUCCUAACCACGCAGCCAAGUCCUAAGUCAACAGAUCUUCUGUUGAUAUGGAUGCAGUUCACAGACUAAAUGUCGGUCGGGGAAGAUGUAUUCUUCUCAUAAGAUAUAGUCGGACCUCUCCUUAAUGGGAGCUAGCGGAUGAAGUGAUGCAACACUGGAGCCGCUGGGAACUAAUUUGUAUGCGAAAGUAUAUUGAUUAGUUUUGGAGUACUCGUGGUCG
Conditions: 37 °C
Tag: t if measured self-splicing fitness (ln) is not below -0.4, f if it is.

residue_sequence | class_label
CUCUAGCAAUAUUACGUGGG | f
AUCGAGCAAUAUUACGUUCA | f
AGCUAGCAAUAUUACGCGUC | f
UAAAAGCAAUAUUACGUCAA | f
GAACAGCAAUAUUACGCUGU | f
AGUGAGCAAUAUUACGCUAU | f
UUAUAGCAAUAUUACGUCGG | t
UGCCAGCAAUAUUACGCAAA | f
CUGGAGCAAUAUUACGCGGC | t
CAUAAGCAAUAUUACGGCCG | t
GUGCAGCAAUAUUACGUAUG | f
GUGCAGCAAUAUUACGUCGC | t

---

Test: self-splicing fitness, log relative to wild type (ln ratio); higher = more splicing; Tetrahymena group I intron in knt gene, E. coli kanamycin selection, DiMSum; sequences stand for … in CUCUCU…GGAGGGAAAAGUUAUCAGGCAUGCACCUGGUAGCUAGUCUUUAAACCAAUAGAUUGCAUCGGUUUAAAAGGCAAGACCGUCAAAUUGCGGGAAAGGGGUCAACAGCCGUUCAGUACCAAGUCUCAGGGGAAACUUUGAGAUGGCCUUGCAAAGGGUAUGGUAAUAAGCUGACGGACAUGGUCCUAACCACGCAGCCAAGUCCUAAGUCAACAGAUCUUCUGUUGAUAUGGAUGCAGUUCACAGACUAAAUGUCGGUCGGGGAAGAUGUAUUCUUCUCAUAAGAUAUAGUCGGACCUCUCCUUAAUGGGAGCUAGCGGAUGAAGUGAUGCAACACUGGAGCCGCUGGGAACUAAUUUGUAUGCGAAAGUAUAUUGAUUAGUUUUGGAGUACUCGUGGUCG
Settings: 37 °C

residue_sequence | self-splicing fitness (ln)
UCACAGCAAUAUUACGCAGU | -2.17
CGGUAGCAAUAUUACGUUUA | -2.03
GGACAGCAAUAUUACGGUCC | -2.28
CCGCAGCAAUAUUACGGUGU | -1.89
UUUCAGCAAUAUUACGGGGA | -0.33
GGGCAGCAAUAUUACGCUAA | 0.361
UACUAGCAAUAUUACGUGGA | -2.47
ACAUAGCAAUAUUACGAAUG | -1.22
CGAAAGCAAUAUUACGCGGA | -1.83
CUAUAGCAAUAUUACGAUCG | 0.439
CGGAAGCAAUAUUACGUACA | -0.219
GUUUAGCAAUAUUACGAUUU | 0.111
AUCAAGCAAUAUUACGCCAU | -1.44
GUGUAGCAAUAUUACGGGUC | -2.49
AUGUAGCAAUAUUACGACCG | -0.5
UGUGAGCAAUAUUACGCUAG | -1.59
CACGAGCAAUAUUACGGGAG | -2.37
UUCGAGCAAUAUUACGACAU | -1.94
CUUUAGCAAUAUUACGACAU | -2.81
CUUAAGCAAUAUUACGGACG | 0.228
CAACAGCAAUAUUACGCUGG | -2.01
AUACAGCAAUAUUACGUUAA | -1.41
AUAUAGCAAUAUUACGCUCA | 0.319
GGGAAGCAAUAUUACGAGAC | -2.1
AUGAAGCAAUAUUACGUCGU | -0.0581
UGGCAGCAAUAUUACGAGAC | -1.09
ACUAAGCAAUAUUACGUAGU | -3.45
GCACAGCAAUAUUACGAACA | -0.85

---

Assay: self-splicing fitness, log relative to wild type (ln ratio); higher = more splicing; Tetrahymena group I intron in knt gene, E. coli kanamycin selection, DiMSum; sequences stand for … in CUCUCU…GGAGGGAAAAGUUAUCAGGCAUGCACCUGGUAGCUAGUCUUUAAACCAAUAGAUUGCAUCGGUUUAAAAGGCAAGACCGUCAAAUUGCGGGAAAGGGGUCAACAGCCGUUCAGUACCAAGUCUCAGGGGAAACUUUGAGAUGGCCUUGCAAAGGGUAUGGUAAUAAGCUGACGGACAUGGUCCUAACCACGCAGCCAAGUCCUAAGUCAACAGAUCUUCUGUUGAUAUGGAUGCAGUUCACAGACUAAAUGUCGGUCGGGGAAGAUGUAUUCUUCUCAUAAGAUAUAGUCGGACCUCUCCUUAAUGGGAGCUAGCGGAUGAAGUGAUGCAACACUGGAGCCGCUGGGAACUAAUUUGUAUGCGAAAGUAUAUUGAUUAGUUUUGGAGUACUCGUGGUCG
Conditions: 30 °C

residue_sequence | self-splicing fitness (ln)
CUUUAGCAAUAUUACGCGUG | -1.89
GAGAAGCAAUAUUACGUCGC | -2.17
UAAUAGCAAUAUUACGGACU | -1.25
GACCAGCAAUAUUACGAGAU | -2.62
CCUUAGCAAUAUUACGGCUC | -3.72
CGAUAGCAAUAUUACGCAAG | -1.97
GCGGAGCAAUAUUACGGGAU | 0.0919
UUUUAGCAAUAUUACGGAUU | -1.8
CAAUAGCAAUAUUACGAGCU | -4.39
GUGAAGCAAUAUUACGCGGU | -3.01
AUUUAGCAAUAUUACGGAUU | -2.1
GUAUAGCAAUAUUACGAGUU | -3.29
UCGCAGCAAUAUUACGGUUC | -3.65
AGCCAGCAAUAUUACGCUAG | -2.97
CGCCAGCAAUAUUACGGGUA | -0.998
AUUCAGCAAUAUUACGCGCC | -1.17
UUUGAGCAAUAUUACGUGUU | -2.61
GGCCAGCAAUAUUACGUAAA | -1.26
CGAAAGCAAUAUUACGAUUG | -0.934
UAACAGCAAUAUUACGUAUU | -3.38
ACCCAGCAAUAUUACGUUUA | -1.57
CUCUAGCAAUAUUACGGUUG | -1.83
CAUGAGCAAUAUUACGAACG | -0.482
UGUGAGCAAUAUUACGGCGA | -1.37
UGUGAGCAAUAUUACGGAAA | -2.62
CGACAGCAAUAUUACGCUCG | -3.34

Cited source: the supplement of paper PMC7877785
